// provenance: PubChem BioAssay AID1259371

- testedTarget: Microphthalmia-associated transcription factor (Homo sapiens)
- procedureText: MITF inhibitors, potency by titration, dose response, biochemical, AlphaScreen, human (AID 1259371)
- studyConditions: AlphaScreen biochemical MITF assay, signal inhibition
Calls of active or inactive are those of the source. How the calls were made is not given here.
Respond using exactly one of the listed classes: active, inactive

{"columns": ["molecule", "group"],
 "data": [
  ["N#C/C(=C/c1ccco1)c1cccc(F)c1", "inactive"],
  ["O=C(NCc1cccnc1)c1cccc(-c2cccs2)c1", "inactive"],
  ["O=C(/C=C/c1ccco1)NCCCCNC(=O)/C=C/c1ccco1", "active"],
  ["O=C(/C=C/c1ccco1)NC(=S)Nc1cc(C(=O)O)ccc1Cl", "active"],
  ["CCC(C)C(=O)NCc1nnc2n1CCN(C/C=C/c1ccco1)CC2 (stereo unspecified)", "active"]
]}

Note: attention shifts to another entry.
What did the test return for CC(C)(C)OC(=O)N1C(C(=O)O)CSC1c1cc2c(cc1[N+](=O)[O-])OCO2 (stereo unspecified) ?
active
